# tested system: AM2 receptor (CALCRL+RAMP3) (Homo sapiens, UniProt O60896+Q16602)
# Construct: host or cells: 1321N1
# Sequence (Q16602 23-461): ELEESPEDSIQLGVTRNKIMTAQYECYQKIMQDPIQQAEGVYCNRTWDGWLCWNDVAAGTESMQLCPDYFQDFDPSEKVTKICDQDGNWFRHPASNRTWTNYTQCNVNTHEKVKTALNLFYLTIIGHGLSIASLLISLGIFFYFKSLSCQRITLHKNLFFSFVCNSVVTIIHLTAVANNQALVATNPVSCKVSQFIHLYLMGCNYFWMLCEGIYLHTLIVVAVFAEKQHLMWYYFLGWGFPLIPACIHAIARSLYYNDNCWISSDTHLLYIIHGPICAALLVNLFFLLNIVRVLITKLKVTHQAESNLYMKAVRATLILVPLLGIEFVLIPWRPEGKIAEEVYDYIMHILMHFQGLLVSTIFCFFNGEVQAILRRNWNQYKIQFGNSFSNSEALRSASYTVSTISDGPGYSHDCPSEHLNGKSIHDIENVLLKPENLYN
# Sequence (O60896 24-148): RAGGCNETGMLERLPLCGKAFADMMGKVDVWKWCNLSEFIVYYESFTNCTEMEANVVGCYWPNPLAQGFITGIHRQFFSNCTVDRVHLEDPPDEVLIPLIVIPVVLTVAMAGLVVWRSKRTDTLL
# assay overview: AM2 receptor inhibition, LANCE TR-FRET cAMP agonist-antagonist competition assay
# Assay type: cell-based
# experimental parameters: inhibition of AM induced cAMP activation; 1321N1 cells transfected with CALCRL+RAMP3; read-out: AM2 pIC50 (converted)
measure name: IC50
Answer format reminder: number followed by unit.

INPUT: Name the recorded IC50 of the compound listed here: CNC(C)c1ccccc1CN(CC(=O)Nc1ccc2c(c1)CC1(C2)C(=O)Nc2ncccc21)C(=O)C(C)(C)C (stereo not drawn)
OUTPUT: 0.0132 µM

INPUT: Tell me measured IC50 for CNCc1ccccc1CN(CC(=O)Nc1ccc2c(c1)CC1(C2)C(=O)Nc2ncccc21)C(=O)NC1CCCC1 (stereo not drawn) please.
OUTPUT: 0.0427 µM

INPUT: Identify IC50 associated with the compound CC(C)(C)OC(=O)N(CC(=O)Nc1ccc2c(c1)CC1(C2)C(=O)Nc2ncccc21)Cc1ccccc1CN1CCC1 (stereo not drawn)
OUTPUT: 0.0741 µM

INPUT: Supply recorded IC50 for CC(C)(C)C(=O)N(CC(=O)Nc1ccc2c(c1)CC1(C2)C(=O)Nc2ncccc21)Cc1ccccc1CN1CC(F)C1 (stereo not drawn) here.
OUTPUT: 0.0912 µM

INPUT: In one line, give reported IC50 of the entry NCc1ccccc1CN(CC(=O)Nc1ccc2c(c1)C[C@@]1(C2)C(=O)Nc2ncccc21)C(=O)C1(C(F)(F)F)CC1 [Example 99, 2,2,2-trifluoroacetate] .
OUTPUT: 0.245 µM

INPUT: Give the value of IC50 reported for the following: CNCc1ccccc1CN(CC(=O)Nc1ccc2c(c1)C[C@@]1(C2)C(=O)Nc2ncccc21)C(=O)C(C)(C)C(F)(F)F [Example 96, 2,2,2-trifluoroacetate]
OUTPUT: 0.049 µM

###

Collected IC50 values appear next to each entry.
# tested system: AM2 receptor (CALCRL+RAMP3) (Homo sapiens, UniProt O60896+Q16602)
# Construct: host or cells: 1321N1
# assay overview: AM2 receptor inhibition, LANCE TR-FRET cAMP agonist-antagonist competition assay
# Type: cell-based
# experimental parameters: inhibition of AM induced cAMP activation; 1321N1 cells transfected with CALCRL+RAMP3; read-out: AM2 pIC50 (converted)
Supply the numeric figure in µM, leaving out any unit text.

Before answering, review these 3 worked examples.
compound	result units	result number
CNCc1ccccc1CN(CC(=O)Nc1ccc2c(c1)CC1(C2)C(=O)Nc2ncccc21)C(=O)N(C)OC (centres unmarked)	µM	0.263
O=C(CN(Cc1ccccc1CN1CCC1)C(=O)CC(F)(F)F)Nc1ccc2c(c1)CC1(C2)C(=O)Nc2ncccc21 (centres unmarked)	µM	0.245
CN(C)CCNCc1ccccc1CN(CC(=O)Nc1ccc2c(c1)CC1(C2)C(=O)Nc2ncccc21)C(=O)C(C)(C)C (centres unmarked)	µM	0.126

INPUT: Return IC50 for the following compound: CNCc1ccccc1CN(CC(=O)Nc1ccc2c(c1)CC1(C2)C(=O)Nc2ncccc21)C(=O)N(C)C (centres unmarked)
OUTPUT: 0.234

INPUT: Give the reported value of IC50 for this record: CNCc1ccccc1CN(CC(=O)Nc1cc2c(cc1C)CC1(C2)C(=O)Nc2ncccc21)C(=O)C(C)(C)C (centres unmarked)
OUTPUT: 0.00741

INPUT: Read off the recorded IC50 for CC(C)(C)C(=O)N(CC(=O)Nc1ccc2c(c1)CC1(C2)C(=O)Nc2ncccc21)Cc1ccccc1CN1CC(F)(F)C1 (centres unmarked)
OUTPUT: 0.398

INPUT: In one line, give reported IC50 of the entry CC(C)NCc1ccccc1CN(CC(=O)Nc1ccc2c(c1)CC1(C2)C(=O)Nc2ncccc21)C(=O)C(C)(C)C (centres unmarked) .
OUTPUT: 0.0891

INPUT: Please look at this compound and report its IC50: CNCc1ccccc1CN(CC(=O)Nc1ccc2c(c1)CC1(C2)C(=O)Nc2ncccc21)C(=O)NC(C)C (centres unmarked)
OUTPUT: 0.0525

INPUT: Note IC50 for the compound shown: CNCc1ccccc1CN(CC(=O)Nc1ccc2c(c1)CC1(C2)C(=O)Nc2ncccc21)C(=O)COC (centres unmarked)
OUTPUT: 0.269

###

# tested system: AM2 receptor (CALCRL+RAMP3) (Homo sapiens, UniProt O60896+Q16602)
# Construct: host or cells: 1321N1
# assay overview: AM2 receptor inhibition, LANCE TR-FRET cAMP agonist-antagonist competition assay
# Format: cell-based
# experimental parameters: inhibition of AM induced cAMP activation; 1321N1 cells transfected with CALCRL+RAMP3; read-out: AM2 pIC50 (converted)
Using IC50 as the sorting value, the categories are low = under 10 nM, moderate = from 10 nM up to 40 nM, high = 40 nM and over

Solved entries (count: 6):
molecule	class name
CNCc1ccccc1CN(CC(=O)Nc1ccc2c(c1)CC1(C2)C(=O)Nc2ncccc21)C(=O)C1CCN(C(=O)N(C)C)CC1 (stereo not shown) [Example 71, 2,2,2-trifluoroacetate]	low
CNCc1ccccc1CN(CC(=O)Nc1ccc2c(c1)CC1(C2)C(=O)Nc2ncccc21)C(=O)C1CCN(C(=O)NC(C)C)CC1 (stereo not shown) [Example 73, 2,2,2-trifluoroacetate]	low
CNCc1ccccc1CN(CC(=O)Nc1ccc2c(c1)CC1(C2)C(=O)Nc2ncccc21)C(=O)N1CCCCC1 (stereo not shown)	high
CNCc1ccccc1CN(CC(=O)Nc1ccc2c(c1)CC1(C2)C(=O)Nc2ncccc21)C(=O)c1cscn1 (stereo not shown)	low
CC(C)(C)C(=O)N(CC(=O)Nc1ccc2c(c1)CC1(C2)C(=O)Nc2ncccc21)Cc1ccccc1CNCCO (stereo not shown)	moderate
CNCc1ccccc1CN(CC(=O)Nc1cnc2c(c1)CC1(C2)C(=O)Nc2ncccc21)C(=O)C(C)(C)C (stereo not shown) [Example 105, 2,2,2-trifluoroacetate]	high

INPUT: Entry CNCc1ccccc1CN(CC(=O)Nc1ccc2c(c1)CC1(C2)C(=O)Nc2ncccc21)C(=O)C1(C)COC1 (stereo not shown) belongs to which category?
OUTPUT: moderate

INPUT: Kindly identify the class of CNCc1ccccc1CN(CC(=O)Nc1ccc2c(c1)CC1(C2)C(=O)Nc2ncccc21)C(=O)N1CCC(OC)C1 (stereo not shown) .
OUTPUT: high

INPUT: For CNCc1ccccc1CN(CC(=O)Nc1ccc2c(c1)CC1(C2)C(=O)Nc2ncccc21)C(=O)C12CC(C1)C2 (stereo not shown) [Example 78, 2,2,2-trifluoroacetate] , which IC50 bin applies?
OUTPUT: low

###

log10 of IC50 by entry:
# tested system: AM2 receptor (CALCRL+RAMP3) (Homo sapiens, UniProt O60896+Q16602)
# Construct: host or cells: 1321N1
# assay overview: AM2 receptor inhibition, LANCE TR-FRET cAMP agonist-antagonist competition assay
# Assay type: cell-based
# experimental parameters: inhibition of AM induced cAMP activation; 1321N1 cells transfected with CALCRL+RAMP3; read-out: AM2 pIC50 (converted)
Please note: log10 values; quantity IC50; unit µM.

molecule	result number
CNCc1ccccc1CN(CC(=O)Nc1ccc2c(c1)CC1(C2)C(=O)Nc2ncccc21)C(=O)C1CCOC1 (stereo not shown) [Example 80]	-1.83
CNCc1ccccc1CN(CC(=O)Nc1ccc2c(c1)CC1(C2)C(=O)Nc2ncccc21)C(=O)C1CCN(C(=O)CN)CC1 (stereo not shown) [Example 70, bis(2,2,2-trifluoroacetate)]	-1.35
CC(C)(C)C(=O)N(CC(=O)Nc1ccc2c(c1)CC1(C2)C(=O)Nc2ncccc21)Cc1ccccc1CNCC(F)(F)F (stereo not shown) [Example 6]	-0.29
CNCc1ccccc1CN(CC(=O)Nc1ccc2c(n1)CC1(C2)C(=O)Nc2ncccc21)C(=O)C(C)(C)C (stereo not shown) [Example 104]	-0.82
COCCNCc1ccccc1CN(CC(=O)Nc1ccc2c(c1)CC1(C2)C(=O)Nc2ncccc21)C(=O)C(C)(C)C (stereo not shown) [Example 18]	-1.48
CNCc1ccccc1CN(CC(=O)Nc1ccc2c(c1)CC1(C2)C(=O)Nc2ncccc21)C(=O)C1CCCO1 (stereo not shown) [Example 63]	-1.27

Then this molecule:
INPUT: Please indicate log10 of IC50 recorded for CNCc1ccccc1CN(CC(=O)Nc1ccc2c(c1)CC1(C2)C(=O)Nc2ncccc21)C(=O)N1CCC2(CCNCC2)C1 (stereo not shown) [Example 90]
OUTPUT: -0.30

###

# tested system: AM2 receptor (CALCRL+RAMP3) (Homo sapiens, UniProt O60896+Q16602)
# Construct: host or cells: 1321N1
# assay overview: AM2 receptor inhibition, LANCE TR-FRET cAMP agonist-antagonist competition assay
# Format: cell-based
# experimental parameters: inhibition of AM induced cAMP activation; 1321N1 cells transfected with CALCRL+RAMP3; read-out: AM2 pIC50 (converted)
Each entry falls into one class according to its IC50; the ranges are group 1: < 0.02 µM; group 2: ≥ 0.02 µM and < 0.1 µM; group 3: ≥ 0.1 µM

Worked examples, 8 compounds total:
compound	class name
CC(C)(C)C(=O)N(CC(=O)Nc1ccc2c(c1)CC1(C2)C(=O)Nc2ncccc21)Cc1ccccc1CNC1CCC1 (stereo not drawn) [Example 20]	group 3
CC(C)(C)C(=O)N(CC(=O)Nc1ccc2c(c1)CC1(C2)C(=O)Nc2ncccc21)Cc1ccccc1CNCC1CC1 (stereo not drawn) [Example 8]	group 3
CNCc1ccccc1CN(C(=O)C(C)(C)C)[C@H](C)C(=O)Nc1ccc2c(c1)CC1(C2)C(=O)Nc2ncccc21 (stereo partly drawn) [Example 35]	group 1
CN(C)CCCNCc1ccccc1CN(CC(=O)Nc1ccc2c(c1)CC1(C2)C(=O)Nc2ncccc21)C(=O)C(C)(C)C (stereo not drawn) [Example 12]	group 3
CNCc1ccccc1CN(CC(=O)Nc1ccc2c(c1)CC1(C2)C(=O)Nc2ncccc21)C(=O)N1CCCC1 (stereo not drawn) [Example 81]	group 1
CNCc1ccccc1CN(CC(=O)Nc1ccc2c(c1)CC1(C2)C(=O)Nc2ncccc21)C(=O)C1CCN(C(C)=O)CC1 (stereo not drawn) [Example 79]	group 2
CC(C)(C)C(=O)N(CC(=O)Nc1ccc2c(c1)C[C@@]1(C2)C(=O)Nc2ncccc21)C1CNCc2ccccc21 (stereo partly drawn) [Example 101, 2,2,2-trifluoroacetate]	group 2
CNCc1ccccc1CN(CC(=O)Nc1ccc2c(c1)CC1(C2)C(=O)Nc2ncccc21)C(=O)C1CCCCO1 (stereo not drawn) [Example 64]	group 2

Would you kindly look at the next entry?
INPUT: Bin this entry: Cc1cc2c(cc1NC(=O)CN(Cc1ccccc1CN)C(=O)C(C)(C)C)CC1(C2)C(=O)Nc2ncccc21 (stereo not drawn) [Example 39]
OUTPUT: group 1
